# reported IC50; entries follow
# STUDY_TARGET: SARM1 (50-724) (Homo sapiens)
# Construct: Purified SARM1 (50-724) with a final concentration of 2 nM
# Sequence (Q6SZW1 50-724): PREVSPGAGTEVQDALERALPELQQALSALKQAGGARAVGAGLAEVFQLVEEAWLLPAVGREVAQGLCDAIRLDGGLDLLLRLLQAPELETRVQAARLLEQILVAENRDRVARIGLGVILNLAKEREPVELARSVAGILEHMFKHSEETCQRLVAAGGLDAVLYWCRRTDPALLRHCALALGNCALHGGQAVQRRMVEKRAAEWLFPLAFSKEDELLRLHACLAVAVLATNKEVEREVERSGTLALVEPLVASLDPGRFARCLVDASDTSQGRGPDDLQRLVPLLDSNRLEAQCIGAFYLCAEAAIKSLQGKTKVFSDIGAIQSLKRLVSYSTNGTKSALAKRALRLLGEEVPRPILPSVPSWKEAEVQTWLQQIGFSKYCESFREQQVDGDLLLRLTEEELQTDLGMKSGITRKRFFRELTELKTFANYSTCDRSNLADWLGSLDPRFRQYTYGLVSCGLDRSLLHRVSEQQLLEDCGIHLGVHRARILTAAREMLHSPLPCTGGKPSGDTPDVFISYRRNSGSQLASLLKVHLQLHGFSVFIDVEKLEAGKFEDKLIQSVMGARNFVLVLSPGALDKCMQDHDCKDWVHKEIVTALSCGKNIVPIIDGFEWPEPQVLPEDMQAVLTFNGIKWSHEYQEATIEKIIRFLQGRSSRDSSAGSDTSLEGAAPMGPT
# MEASUREMENT_PROTOCOL: SARM1 (50-724) enzymatic assay (NMN-activated NAD+ hydrolysis, LC-MS/MS readout)
# EXPERIMENTAL_SETUP: purified SARM1 (50-724) 2 nM, 200 μM NMN activator, 100 μM NAD+ substrate, 1 h at room temperature, read-out: IC50 (SARM1 inhibitory activity)

These solved cases illustrate the format of a correct answer.
Cc1ccc2[nH]c(C(=O)N(C)C3CCCC3)c(CNc3nccs3)c2c1 [Compound 76] ... 101 to 500 nM
O=C(c1nc2cc(C(F)(F)F)ccc2[nH]1)N(CCO)c1cccc(F)c1Cl [Compound 157] ... ≤ 100 nM
O=C(c1nc2cc(C(F)(F)F)ccc2[nH]1)N(CC1CC(O)C1)c1cccc(F)c1Cl (stereo not shown) [Compound 194] ... ≤ 100 nM
CC(C)(C#N)c1ccc2[nH]c(C(=O)N(CC(F)(F)CO)c3ccc(F)c(F)c3Cl)nc2c1 [Compound 208] ... ≤ 100 nM
Cc1cnc2[nH]c(C(=O)N(C)C3CCCC3)c(CO)c2c1 [Compound 38] ... ≥ 1000 nM

// query // fetch IC50 for Cc1ccc2[nH]c(C(=O)N(C)CCC(C)C)c(CNc3ccccn3)c2c1 [Compound 88] ; system: SARM1 (50-724) (Homo sapiens)
// result ≥ 1000 nM

// query With SARM1 (50-724) (Homo sapiens) as the test system, provide measured IC50 for this compound: COC(=O)CN(C(=O)c1nc2cc(C(F)(F)F)ccc2[nH]1)c1cccc(Cl)c1Cl [Compound 140]
// result ≤ 100 nM

// query Report measured IC50 on SARM1 (50-724) (Homo sapiens); entry: CN(C(=O)c1nc2c(C3COC3)cccc2[nH]1)C1CCCC1 [Compound 113]
// result ≥ 1000 nM

// query Please indicate recorded IC50 of O=C(c1nc2cc(C(F)(F)F)ccc2[nH]1)N(CC(F)(F)CO)c1cc(F)ccc1Cl [Compound 219] measured with SARM1 (50-724) (Homo sapiens).
// result 101 to 500 nM

// query Specify IC50 for CC1CCC(C)C1N(CCO)C(=O)c1nc2cc(C(F)(F)F)ccc2[nH]1 (stereo not shown) [Compound 102] , system SARM1 (50-724) (Homo sapiens).
// result ≤ 100 nM

// query Look up and report IC50, with SARM1 (50-724) (Homo sapiens) as system, for Cc1ccc2[nH]c(C(=O)N(C)C3CCCC3)c(CN)c2c1 [Compound 68]
// result ≥ 1000 nM

// query Lab note: SARM1 (50-724) (Homo sapiens) assay, enter IC50 for CCc1cccc2[nH]c(C(=O)N(C)C3CCCC3)nc12 [Compound 94] here
// result ≥ 1000 nM

// query Look up and report measured IC50 (SARM1 (50-724) (Homo sapiens)) for the following compound: NC(=O)C(F)(F)CN(C(=O)c1nc2cc(C(F)(F)F)ccc2[nH]1)c1cccc(Cl)c1Cl [Compound 107]
// result ≤ 100 nM
